# ASSAY COMMENT: basal RPMI8226 viability, no added stimulus, profiling panel, cell-based, calcein-AM fluorescence, 48 h, PK04 Diversity Set (AID 1166);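 note: cells grown under basal conditions without added stimulus; test concentration not given here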
# PARTICULARS: RPMI8226 myeloma viability, higher = more signal
Cut-off -1 on z-score: below means y, at or above means n.

MOLECULE: C=CCC(OC(C)=O)[C@@H]1[C@@H](N(Cc2cc3ccccc3o2)C(=O)c2ccc(C)cc2)c2cc(OCCCO)ccc2N1C(=O)c1ccc2ccccc2c1 (stereo not given in full)
GROUP: n
--
MOLECULE: CO[C@H]1O[C@H](CO)[C@@H](OC(=O)Nc2ccc3c(c2)OCO3)[C@H](OC(=O)Nc2ccccc2)[C@H]1OC(=O)Nc1ccccc1
GROUP: y
--
MOLECULE: O=C1C2C=CC(C(O)c3ccc(-c4ccccc4)s3)N(n3cnnc3)C2C(=O)N1Cc1ccccc1 (stereo not given)
GROUP: y
--
MOLECULE: C=CCNC(=O)[C@@H]1[C@H]2C(=O)O[C@H](c3ccccc3)[C@H](c3ccccc3)N2[C@H](c2ccccc2OCCO)[C@@]12C(=O)Nc1ccc(C#CC3=CCCCC3)cc12
GROUP: y
--
MOLECULE: C=CCC(OC(C)=O)[C@@H]1[C@@H](N(Cc2ccc(-c3ccccc3)cc2)C(=O)Cc2ccc(OC)cc2)c2cc(OCCCO)ccc2N1C(=O)c1ccc2ccccc2n1 (stereo not given in full)
GROUP: n

Data request: Does the reported z-score of CC(C)c1ccc(NN2C(C(O)c3ccc(N(C)C)cc3)C=CC3C(=O)N(c4ccccc4)C(=O)C32)cc1 (stereo not given) stay below -1?
Data returned: n

Data request: Same thing, different molecule: `COc1ccc(C#Cc2ccc3c(c2)[C@]2(C(=O)N3)[C@H](c3ccc(O)cc3)N3[C@H](c4ccccc4)[C@H](c4ccccc4)OC(=O)[C@H]3[C@@H]2C(=O)N2CCCCCCC2)cc1`
Data returned: n

Data request: Same thing, different molecule: `C=CC[C@@]1(C(=O)O)N=C(c2ccc(OCCCO)cc2)O[C@@H]1c1ccccc1N=[N+]=[N-]`
Data returned: n

Data request: Same thing, different molecule: `COC(=O)[C@@]1(Cc2ccccc2)[C@H]2c3cc(C(=O)N(C)C)n(Cc4c(-c5ccccc5)noc4C)c3C[C@H]2CN1C(=O)c1ccccc1`
Data returned: y

Data request: Same thing, different molecule: `COCCOC(=O)N1C(=O)[C@@]2(c3cc(C#CCNC(N)=O)ccc31)[C@H](C(=O)N1CCc3cc(OC)c(OC)cc3C1)[C@H]1C(=O)O[C@H](c3ccccc3)[C@H](c3ccccc3)N1[C@@H]2c1ccc(OCCO)cc1`
Data returned: n

Data request: Same thing, different molecule: `CC(=CC1CCCCC1)[C@@H](NC(=O)c1ccc(C(F)(F)F)cc1)c1ccc(-c2ccccc2)cc1`
Data returned: y

Data request: Same thing, different molecule: `C=C(C(=O)CC[C@H](OC(C)=O)c1ccc(OCCO)cc1)C(C)C`
Data returned: y

Data request: Same thing, different molecule: `C=C[C@H](COC(C)=O)N(Cc1ccc(OC(C)=O)c(OC)c1)S(=O)(=O)c1ccc(Br)cc1`
Data returned: n

Data request: Same thing, different molecule: O=C1OCCC=C[C@H]2OC34C=CCN(Cc5ccccc5)C(=O)[C@H]3N(CCCO)C(=O)[C@@H]4C12 (stereo not given in full)
Data returned: n

Data request: Same thing, different molecule: `COC(=O)[C@]1(Cc2ccccc2N=[N+]=[N-])N=C(c2ccc(OCCCO)cc2)O[C@@H]1c1ccccc1N=[N+]=[N-]`
Data returned: y
